# system: SARS-CoV-2 RBD protein Avi-tag biotinylated (AcroBiosystems SPD-C82E9) (SARS-CoV-2, UniProt P0DTC2 330-518)
# test_details: competition AlphaLISA; competitor human ACE2-mFc
quantity_measured: pIC50
Keep in mind that pIC50 stands for -log10 of concentration in molar terms.

binder VHH3.17 (VHH) VHH: QVQLQESGGGLVEAGGSLTLSCAASGRAFGDGAVGWFRQGPGRPREFVATVSWNGGGTYFAESVRGRFTISRDNAKNTVYLQMNNLKPEDTAVYYCALAGEGTVVSEWDYDYEYWGQGTQVTVSS , pIC50 observed: 8.99
